Reference for the values: patent US8648066B2

target: mTOR/GbL/Raptor (mTORC1) (Homo sapiens, UniProt P42345); assay: mTOR/GbL/Raptor (mTORC1) ELISA assay; details: phosphorylation of 4E-BP1; 0.2 nM mTORC1, 10 μM ATP; read-out: IC50 in this assay (mTORC1 ELISA)
pIC50: −log10 of the molar value.
Reported values of pIC50 for individual entries

compound="CC1(C)CCc2ncnc(N3CCOc4ccc(-c5cnc(F)c(NS(C)(=O)=O)c5)cc4C3)c2C1 [Example 632]" measurement_target="mTOR/GbL/Raptor (mTORC1) (Homo sapiens, UniProt P42345)" property_name=pIC50 reported_value="6.00 to 6.60"
compound="Cc1nc2c(C)cc(-c3ccc4c(c3)CN(c3ncnc5cccnc35)CCO4)cc2[nH]1 [Example 214]" measurement_target="mTOR/GbL/Raptor (mTORC1) (Homo sapiens, UniProt P42345)" property_name=pIC50 reported_value="6.00 to 6.60"

Moving on to the next compound.
Param item = COCCc1c(C)nc(CN(C)C)nc1N1CCOc2ccc(-c3cnc4sc(N)nc4c3)cc2C1 [Example 667] ; retrieve measured pIC50. 6.60 to 7.30
